Target: Kinesin-like protein KIF23 (Homo sapiens) (UniProt Q02241)
Sequence (Q02241 whole entry): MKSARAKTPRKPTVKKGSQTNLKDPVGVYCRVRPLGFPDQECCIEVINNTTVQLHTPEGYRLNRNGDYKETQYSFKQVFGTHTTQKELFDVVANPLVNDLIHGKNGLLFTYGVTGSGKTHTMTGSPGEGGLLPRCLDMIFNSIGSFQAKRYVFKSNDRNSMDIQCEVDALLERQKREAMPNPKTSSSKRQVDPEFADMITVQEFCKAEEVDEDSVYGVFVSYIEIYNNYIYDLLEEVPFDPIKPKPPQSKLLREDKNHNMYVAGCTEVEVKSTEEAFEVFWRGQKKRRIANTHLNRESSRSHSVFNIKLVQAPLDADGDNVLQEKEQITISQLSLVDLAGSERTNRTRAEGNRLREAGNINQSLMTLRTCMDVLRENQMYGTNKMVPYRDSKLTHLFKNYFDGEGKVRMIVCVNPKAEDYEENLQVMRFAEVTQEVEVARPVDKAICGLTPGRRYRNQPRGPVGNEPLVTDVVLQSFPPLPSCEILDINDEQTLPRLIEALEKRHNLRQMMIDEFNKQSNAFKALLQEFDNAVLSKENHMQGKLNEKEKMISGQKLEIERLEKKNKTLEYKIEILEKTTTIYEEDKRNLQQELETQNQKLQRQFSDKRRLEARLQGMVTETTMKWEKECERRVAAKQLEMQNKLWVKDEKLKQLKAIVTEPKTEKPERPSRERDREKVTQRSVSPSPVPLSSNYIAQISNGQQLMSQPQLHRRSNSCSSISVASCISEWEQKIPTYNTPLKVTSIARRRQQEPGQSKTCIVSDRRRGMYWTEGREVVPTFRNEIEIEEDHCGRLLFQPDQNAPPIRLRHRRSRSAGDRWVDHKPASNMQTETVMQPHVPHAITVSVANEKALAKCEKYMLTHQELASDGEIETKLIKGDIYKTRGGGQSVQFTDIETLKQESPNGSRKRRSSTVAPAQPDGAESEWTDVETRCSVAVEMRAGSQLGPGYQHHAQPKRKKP
Assay: Inhibition of MKLP1 assessed as inhibition ATP hydrolysis by ATPase assay at 20 uM
valueType: inhibition
Answer shape: numeric part, then the unit.

chemicalSmiles: N[C@@H](CSC(c1ccccc1)(c1ccccc1)c1ccc(C(F)(F)F)cc1)C(=O)O
inhibition: 7%

chemicalSmiles: COC(=O)[C@@H](N)CSC(c1ccccc1)(c1ccccc1)c1ccc(OC)cc1
inhibition: 5%

chemicalSmiles: N[C@@H](CSC(c1ccccc1)(c1ccccc1)c1ccccc1)C(=O)O
inhibition: 2%

Now consider a different molecule.
[in] I would be grateful if you could share the reported inhibition for `COc1ccc(C(SC[C@H](N)C(=O)O)(c2ccccc2)c2ccccc2)cc1` .
[out] 10%
